Below, each entry is listed with its recorded pIC50.
test: Cytotoxicity against human H460 cells after 48 hrs by MTT assay; format: functional, cell-based; conditions: NCI-H460, 48 h
Hey, just a heads up that pIC50 is the negative log base 10 of the concentration in molar.

Example entries and their recorded answers appear below.
{"smiles structure": "CC(C)=CCC/C(C)=C/CC/C(C)=C/CSc1ccccc1C(=O)NCCOCCNC(=O)c1ccccc1SC/C=C(\\C)CC/C=C(\\C)CCC=C(C)C", "pIC50": 4.36}
{"smiles structure": "CC(C)=CCC/C(C)=C/CC/C(C)=C/CSc1ccccc1C(=O)NCCOCCN", "pIC50": 5.16}
{"smiles structure": "CC(C)=CCC/C(C)=C/CC/C(C)=C/CSc1ccccc1C(=O)N1CCNCC1", "pIC50": 4.58}
{"smiles structure": "CC(C)=CCC/C(C)=C/CC/C(C)=C/CSc1ccccc1C(=O)NCCCCN", "pIC50": 4.90}

Note pIC50 for the compound shown: `CC(C)=CCC/C(C)=C/CC/C(C)=C/CSc1ccccc1C(=O)NCCCCCNC(=O)c1ccccc1SC/C=C(\C)CC/C=C(\C)CCC=C(C)C`
4.33

Report pIC50, nothing else, for this compound: `CC(C)=CCC/C(C)=C/CC/C(C)=C/CSc1ccccc1C(=O)NCCCN`
4.69

Give reported pIC50 value for `CNC(=O)c1cc(Oc2ccc(NC(=O)Nc3ccc(Cl)c(C(F)(F)F)c3)cc2)ccn1`
4.97

Data origin: ChEMBL document CHEMBL3102776
